# target desc: T1, human MerTK on human macrophages (human, UniProt Q12866 21-999)
# T1 sequence: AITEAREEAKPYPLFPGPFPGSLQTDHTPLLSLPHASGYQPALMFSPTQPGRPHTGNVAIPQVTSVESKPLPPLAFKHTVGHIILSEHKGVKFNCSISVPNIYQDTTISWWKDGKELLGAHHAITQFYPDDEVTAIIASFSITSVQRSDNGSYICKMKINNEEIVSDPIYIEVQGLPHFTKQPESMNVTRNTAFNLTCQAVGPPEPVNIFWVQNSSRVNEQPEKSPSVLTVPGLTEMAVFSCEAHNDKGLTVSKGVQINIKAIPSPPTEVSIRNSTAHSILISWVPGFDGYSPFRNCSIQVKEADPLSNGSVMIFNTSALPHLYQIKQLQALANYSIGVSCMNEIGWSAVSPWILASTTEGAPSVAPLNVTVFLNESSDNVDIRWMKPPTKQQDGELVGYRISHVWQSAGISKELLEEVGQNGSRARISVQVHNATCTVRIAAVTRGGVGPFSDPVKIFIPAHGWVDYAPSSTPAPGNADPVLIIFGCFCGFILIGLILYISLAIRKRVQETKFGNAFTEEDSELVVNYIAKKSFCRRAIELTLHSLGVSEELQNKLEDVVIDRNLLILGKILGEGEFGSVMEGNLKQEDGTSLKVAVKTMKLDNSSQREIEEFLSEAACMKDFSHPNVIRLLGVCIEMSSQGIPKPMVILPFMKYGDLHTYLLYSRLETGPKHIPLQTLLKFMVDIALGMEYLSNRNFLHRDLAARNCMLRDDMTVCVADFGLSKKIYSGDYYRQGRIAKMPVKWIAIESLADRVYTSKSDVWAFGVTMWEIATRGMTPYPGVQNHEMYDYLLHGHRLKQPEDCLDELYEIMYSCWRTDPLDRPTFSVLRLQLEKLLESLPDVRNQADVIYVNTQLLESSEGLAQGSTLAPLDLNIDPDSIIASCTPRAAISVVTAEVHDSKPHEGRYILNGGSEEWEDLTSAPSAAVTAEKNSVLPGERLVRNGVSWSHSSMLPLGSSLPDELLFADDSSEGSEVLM
# assay procedure: cell-based or functional assay
parameter: IC50 (nM), efferocytosis by human macrophages, Average (3 Donors)
Field: numeric (nM). Do not append units.

// worked examples, IC50 (nM), efferocytosis by human macrophages, Average (3 Donors) included
h9E3.FN.v16 (antibody, V domains shown, Humanized, human IgG1; also called 9E3.FN Humanized polished mAb) VH: EVQLVESGGGLIQPGGSLRLSCAASGFSLSSNAMSWVRQAPGKGLEWVSIISSSGSTYSASWAKGRFTISKDNSKNTLYLQMNSLRAEDTAVYYCARVGFFVGYGAYDYGIIHRLDLWGQGTLVTVSS VL: DIQLTQSPSTLSASVGDRVTITCQSSKSIYNNNWLSWYQQKPGKPPKLLIYDASDLASGVPSRFSGSGSGTEFTLTISSLQPDDFATYYCAGGYSGDSDYAFGGGTKVEIK; 1.02
h13B4.v16 (antibody, V domains shown, Humanized, human IgG1; also called 13B4 Fully Humanized; 13B4 Humanized polished mAb) VH: EVQLVESGEGLVQPGGSLRLSCAASGFSLSSYAMGWVRQAPGKGLEYVGIINSYGNTYYANWAKGRFTISRDNSKNTVYLQMGSLRAEDMAVYYCARDPGVSSNLWGRGTLVTVSS VL: DIQMTQSPSTLSASVGDRVTITCQASQNIYSGLAWYQQKPGKAPKLLIYGASKLASGVPSRFSGSGSGTEFTLTISSLQPDDFATYYCQATYYSSNSVAFGGGTKVEIK; 0.08
h10F7.v16 (antibody, V domains shown, Humanized, human IgG1; also called 10F7 Fully Humanized; 10F7 Humanized polished mAb) VH: EVQLVESGGGLVQPGGSLRLSCAVSGFSLSGYAMSWVRQAPGKGLEYIGVISSSGSSYYPSWAKGRFTISKDNSKNTLYLQMGSLRAEDMAVYYCARVQFYVGYAVYGYGIIDRLDLWGQGTLVTVSS VL: DIVLTQSPDSLAVSLGERATINCQSSKSVYNNNWLSWYQQKPGQPPKLLIYRASTLESGVPDRFSGSGSGTDFTLTISSLQAEDVAVYFCAGGYSSSSSANAFGGGTKVEIK; 0.41

Here is the next item to consider.
Bench note: what IC50 (nM), efferocytosis by human macrophages, Average (3 Donors) did h10C3.v14 (antibody, V domains shown, Humanized, human IgG1; also called 10C3 Humanized polished mAb) VH: EVQLVESGGGLVQPGGSLRLSCAASGFSLSGYTMGWVRQAPGKGLEYIGVISSGGTTYYTNWAKGRFTISKDNSKNTLYLQMGSLRAEDMAVYYCARVAFTAYGGGGFPTLHRLDLWGQGTLVTVSS VL: DQVLTQSPDSLAVSLGERATINCQSSESVYNNDYLAWYQQKPGQPPKLLIYSASTLASGVPDRFSGSGSGTDFTLTISSLQAEDVAVYYCAGGYLGNNVFGGGTKVEIK show?
0.95
